Molecular target: UniProt P35372
Sequence (P35372 whole entry): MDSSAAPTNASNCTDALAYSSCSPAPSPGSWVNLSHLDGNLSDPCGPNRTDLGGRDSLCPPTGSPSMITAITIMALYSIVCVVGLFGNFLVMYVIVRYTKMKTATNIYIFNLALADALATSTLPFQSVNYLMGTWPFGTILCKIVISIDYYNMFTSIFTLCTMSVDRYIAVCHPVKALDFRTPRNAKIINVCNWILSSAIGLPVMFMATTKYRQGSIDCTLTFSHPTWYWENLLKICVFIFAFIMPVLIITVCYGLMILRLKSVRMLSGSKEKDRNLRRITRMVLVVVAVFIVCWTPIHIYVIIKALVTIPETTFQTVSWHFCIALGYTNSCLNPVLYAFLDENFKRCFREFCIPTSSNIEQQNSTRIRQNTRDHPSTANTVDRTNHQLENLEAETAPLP
ENDPOINT: Ki (µM)
The answer is to be given in µM; state only the numeric part.

Query string: I am curious: what Ki value has been reported for COc1cc2c3c(c1OC)-c1ccccc1C[C@H]3N(C)CC2 [nuciferine] ?
Result string: 9.55

---

ENDPOINT: Ki (nM)
The answer is to be given in nM; state only the numeric part.

Query string: API: value(readout= Ki, system= 5-HT1D (Homo sapiens, UniProt P28221), query= `COc1cc2c3c(c1OC)-c1ccccc1C[C@H]3N(C)CC2` )
Result string: 518

---

ENDPOINT: pKi
Scale for pKi: -log10 of concentration given in mol/L; no unit attached.

Query string: API: value(readout= pKi, system= β1-AR (Homo sapiens), query= `COc1cc2c3c(c1OC)-c1ccccc1C[C@H]3N(C)CC2` )
Result string: 5.15

These entries and their values trace back to paper PMC4786259.
